Catalogue of log10(half-life) values
Test: Pharmacokinetics and bioanalysis in the rat
Format: in vivo, male Sprague Dawley Rats
Conditions: male, Sprague Dawley, oral 10 mg/kg, citric acid salt, plasma
Method: One group of six male Sprague Dawley Rats (approx. 300 g body weight; three animals per time point) was used. They were group-housed, provided food and water ad libitum, and were maintained on a 12-h light and dark cycle. […] Data analysis was performed using WinNonlin version 3.3 or 4.0.1. A non -compartmental model (#200 for Extravascular administration and #201 for i.v.) was used to determine the pharmacokinetic parameters shown in Tables 4 and 5 (NA=not applicable or not determined).
The base-10 logarithm of half-life, taken with half-life in h, is what appears here.

| smiles-string | log10(half-life) |
| --- | --- |
| O=C(O)CC(O)(CC(=O)O)C(=O)O.O=C(c1ccc(CN2CCC(F)CC2)cc1)N1CCN(C2CCC2)CC1 | 0.54 |
| O=C(O)CC(O)(CC(=O)O)C(=O)O.O=C(c1ccc(CN2CCSCC2)cc1)N1CCN(C2CCC2)CC1 | -0.02 |
| CC(C)N1CCN(C(=O)c2ccc(CN3CCOCC3)cc2)CC1.O=C(O)CC(O)(CC(=O)O)C(=O)O | 0.67 |

Problem: Could you share which log10(half-life) value was measured for CC(C)N1CCN(C(=O)c2ccc(CN3CCC(F)CC3)cc2)CC1.O=C(O)CC(O)(CC(=O)O)C(=O)O ?
Solution: 0.91

Problem: Could you share which log10(half-life) value was measured for O=C(O)CC(O)(CC(=O)O)C(=O)O.O=C(c1ccc(CN2CCC(F)CC2)cc1)N1CCN(C2CC2)CC1 ?
Solution: 0.43

Problem: Could you share which log10(half-life) value was measured for O=C(O)CC(O)(CC(=O)O)C(=O)O.O=C(c1ccc(CN2CCSCC2)cc1)N1CCN(C2CC2)CC1 ?
Solution: -0.39

----------
Catalogue of half-life values
test: Pharmacokinetics and bioanalysis in the rat; format: in vivo, male Sprague Dawley Rats; conditions: male, Sprague Dawley, iv, i.v. 1 mg/kg, citric acid salt, plasma
Give just the numeric value; h need not be written.

The following compounds have reported results that may help.
| compound | value-measured |
| --- | --- |
| O=C(O)CC(O)(CC(=O)O)C(=O)O.O=C(c1ccc(CN2CCC(F)CC2)cc1)N1CCN(C2CC2)CC1 [Example 2B] | 1.11 |
| O=C(O)CC(O)(CC(=O)O)C(=O)O.O=C(c1ccc(CN2CCOCC2)cc1)N1CCN(C2CC2)CC1 [Example 1B] | 0.92 |

Problem: Could you share which half-life value was measured for O=C(O)CC(O)(CC(=O)O)C(=O)O.O=C(c1ccc(CN2CCOCC2)cc1)N1CCN(C2CCC2)CC1 [Comparative Example 2B] ?
Solution: 1.86

Problem: Could you share which half-life value was measured for O=C(O)CC(O)(CC(=O)O)C(=O)O.O=C(c1ccc(CN2CCSCC2)cc1)N1CCN(C2CCC2)CC1 [Comparative Example 5B] ?
Solution: 1.33

----------
assay: Measured pKa, log P and log D (determined by pION, Inc.); assay type: physicochemical
reported-metric: logP
No unit in the answer, please; the number alone is enough.

| smiles-string | logP |
| --- | --- |
| O=C(c1ccc(CN2CCOCC2)cc1)N1CCN(C2CC2)CC1 | 0.89 |

Problem: Could you share which logP value was measured for O=C(c1ccc(CN2CCOCC2)cc1)N1CCN(C2CCC2)CC1 ?
Solution: 2.09
